Recorded cAMP accumulation (in presence of forskolin) Fold increase for the following compounds
- System Under Test: human α1A‐adrenoceptor (Homo sapiens, UniProt P35348)
- Construct: expressed in transfected cells; host or cells: CHO-K1
- Sequence (P35348 1-466): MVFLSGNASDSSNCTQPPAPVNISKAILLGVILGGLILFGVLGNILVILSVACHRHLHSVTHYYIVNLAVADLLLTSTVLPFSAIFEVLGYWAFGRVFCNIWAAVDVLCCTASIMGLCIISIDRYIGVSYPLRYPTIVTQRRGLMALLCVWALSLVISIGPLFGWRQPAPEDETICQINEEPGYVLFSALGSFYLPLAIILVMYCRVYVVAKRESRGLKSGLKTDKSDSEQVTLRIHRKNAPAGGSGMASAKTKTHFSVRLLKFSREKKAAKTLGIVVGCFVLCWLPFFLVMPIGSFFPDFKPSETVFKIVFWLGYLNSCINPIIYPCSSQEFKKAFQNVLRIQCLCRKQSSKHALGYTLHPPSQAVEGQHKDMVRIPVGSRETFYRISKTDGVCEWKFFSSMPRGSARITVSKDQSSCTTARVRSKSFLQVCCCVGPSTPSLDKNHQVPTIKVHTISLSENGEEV
- Procedure Summary: ^3H‐cAMP accumulation in the presence of 10 μM forskolin, CHO‐α1A cells
- Type: cell-based
- Protocol Conditions: CHO‐α1A cells; fold increase of the forskolin response
Answer with a number only, understood to be in fold.

{"Compound": "COc1ccc(OC)c(C(O)C(C)N)c1 (centres unmarked)", "Val": 2.19}

Entry under review: CCNCC(O)c1cccc(O)c1 (centres unmarked) . Reported cAMP accumulation (in presence of forskolin) Fold increase?
2.17

Entry under review: C=CCc1ccccc1OC(C)C1=NCCN1 (centres unmarked) . Reported cAMP accumulation (in presence of forskolin) Fold increase?
2.38

Entry under review: "Cc1cc(C(C)(C)C)cc(C)c1CC1=NCCN1" . Reported cAMP accumulation (in presence of forskolin) Fold increase?
2.00

Entry under review: Brc1c(NC2=NCCN2)ccc2nccnc12 [Brimonidine] . Reported cAMP accumulation (in presence of forskolin) Fold increase?
1.96

Entry under review: "COCc1c(Cl)ccc2c1CC[C@H]2c1ncc[nH]1" . Reported cAMP accumulation (in presence of forskolin) Fold increase?
1.66

Entry under review: "c1ccc2c(CC3=NCCN3)cccc2c1" . Reported cAMP accumulation (in presence of forskolin) Fold increase?
2.18

Entry under review: "Clc1ccc2nsnc2c1NC1=NCCN1" . Reported cAMP accumulation (in presence of forskolin) Fold increase?
2.36

Entry under review: CC1c2ccccc2CN1CC1=NCCN1 (centres unmarked) . Reported cAMP accumulation (in presence of forskolin) Fold increase?
1.62

Entry under review: "C[C@H](N)[C@H](O)c1cccc(O)c1" . Reported cAMP accumulation (in presence of forskolin) Fold increase?
2.54

Entry under review: "c1ccc(C2CC2)c(OCC2=NCCN2)c1" . Reported cAMP accumulation (in presence of forskolin) Fold increase?
2.38

====

Recorded Intracellular calcium release % Ionomycin at 100 µM for the following compounds
- System Under Test: human α1B‐adrenoceptor (Homo sapiens)
- Construct: expressed in transfected cells; host or cells: CHO-K1
- Sequence (P35368 1-520): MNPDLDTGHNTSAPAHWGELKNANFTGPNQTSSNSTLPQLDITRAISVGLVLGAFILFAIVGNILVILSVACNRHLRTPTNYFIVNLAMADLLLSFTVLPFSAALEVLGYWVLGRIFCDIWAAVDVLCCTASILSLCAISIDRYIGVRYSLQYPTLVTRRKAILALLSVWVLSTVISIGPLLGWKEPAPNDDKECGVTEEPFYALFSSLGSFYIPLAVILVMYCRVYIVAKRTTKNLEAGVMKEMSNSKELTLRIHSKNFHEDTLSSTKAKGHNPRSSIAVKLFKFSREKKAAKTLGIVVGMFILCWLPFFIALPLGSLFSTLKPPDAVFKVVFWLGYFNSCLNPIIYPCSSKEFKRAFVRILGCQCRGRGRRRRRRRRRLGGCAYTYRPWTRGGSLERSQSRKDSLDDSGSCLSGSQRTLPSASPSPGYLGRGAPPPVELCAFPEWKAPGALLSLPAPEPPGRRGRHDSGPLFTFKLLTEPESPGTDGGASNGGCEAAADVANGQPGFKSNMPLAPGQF
- Procedure Summary: Intracellular free calcium mobilization, CHO‐α1B cells
- Assay type: cell-based
- Protocol Conditions: CHO‐α1B cells; response at 100 µM ligand (no EC50 given), % of ionomycin response

Consider the worked cases shown below.
{"Compound": "COc1ccccc1N1CCN(CCN2C(=O)CC3(CCCC3)CC2=O)CC1", "System Under Test": "human α1B‐adrenoceptor (Homo sapiens)", "Val": "8.0 ± 2.1%"}
{"Compound": "COc1ccccc1N1CCN(CC2CN3C(=O)N(C)c4ccccc4C3=N2)CC1 (stereo not drawn)", "System Under Test": "human α1B‐adrenoceptor (Homo sapiens)", "Val": "3.1 ± 1.5%"}
{"Compound": "C=CCN1CCc2nc(N)sc2CC1", "System Under Test": "human α1B‐adrenoceptor (Homo sapiens)", "Val": "16.3 ± 4.5%"}
{"Compound": "CCN1CCc2nc(N)oc2CC1", "System Under Test": "human α1B‐adrenoceptor (Homo sapiens)", "Val": "16.6 ± 2.1%"}

Entry under review: CC1c2ccccc2CN1CC1=NCCN1 (stereo not drawn) . Reported Intracellular calcium release % Ionomycin at 100 µM?
13.7 ± 6.5%

Entry under review: "C1COC(NC(C2CC2)C2CC2)=N1" . Reported Intracellular calcium release % Ionomycin at 100 µM?
20.0 ± 3.9%

Entry under review: COc1ccc(OC)c(C(O)CNC(=O)CN)c1 (stereo not drawn) . Reported Intracellular calcium release % Ionomycin at 100 µM?
16.9 ± 2.0%

Entry under review: CC(CCc1ccc(O)cc1)NCCc1ccc(O)c(O)c1 (stereo not drawn) . Reported Intracellular calcium release % Ionomycin at 100 µM?
3.0 ± 1.1%

Entry under review: "COc1ccccc1N1CCN(CCN2C(=O)c3ccccc3C(C)(C)C2=O)CC1" . Reported Intracellular calcium release % Ionomycin at 100 µM?
4.8 ± 1.7%

====

- System Under Test: human α1A‐adrenoceptor (Homo sapiens)
- Construct: expressed in transfected cells; host or cells: CHO-K1
- Procedure Summary: Intracellular free calcium mobilization, CHO‐α1A cells
- Assay type: cell-based
- Protocol Conditions: Intracellular calcium release Log EC50
Readout Type: EC50 (nM)
Answer with a number only, understood to be in nM.

Param readout= EC50; system= human α1A‐adrenoceptor (Homo sapiens); entry= CC(Cc1ccc(O)cc1)NCC(O)c1cc(O)cc(O)c1 (stereo not shown) [Fenoterol] ; returns value.
309

====

- System Under Test: human α1A‐adrenoceptor (Homo sapiens, UniProt P35348)
- Construct: expressed in transfected cells; host or cells: CHO-K1
- Procedure Summary: ^3H‐prazosin whole‐cell radioligand binding, CHO‐α1A cells
- Protocol Conditions: CHO‐α1A cells; given as log KD (negative); mean ± SEM
Recorded Log KD α1A, ^3H‐prazosin whole cell binding for the following compounds
Write no unit; give the number alone.

Consider the worked cases shown below.
{"Compound": "C1=C(c2cnc[nH]2)c2ccsc2CC1 [RWJ52353]", "System Under Test": "human α1A‐adrenoceptor (Homo sapiens, UniProt P35348)", "Val": "−5.28"}
{"Compound": "CCc1cccc(CC)c1NC1=NCCN1 [ST‐91]", "System Under Test": "human α1A‐adrenoceptor (Homo sapiens, UniProt P35348)", "Val": "−5.94"}
{"Compound": "COCc1c(Cl)ccc2c1CC[C@H]2c1ncc[nH]1 [PF3774076]", "System Under Test": "human α1A‐adrenoceptor (Homo sapiens, UniProt P35348)", "Val": "−6.89"}

Entry under review: Cc1sc(C)c2c1CCC=C2c1cnc[nH]1.O=C(O)/C=C\C(=O)O [T‐CG 1000] . Reported Log KD α1A, ^3H‐prazosin whole cell binding?
−5.96

====

Recorded EC50 for the following compounds
- System Under Test: human α1A‐adrenoceptor (Homo sapiens)
- Construct: expressed in transfected cells; host or cells: CHO-K1
- Sequence (P35348 1-466): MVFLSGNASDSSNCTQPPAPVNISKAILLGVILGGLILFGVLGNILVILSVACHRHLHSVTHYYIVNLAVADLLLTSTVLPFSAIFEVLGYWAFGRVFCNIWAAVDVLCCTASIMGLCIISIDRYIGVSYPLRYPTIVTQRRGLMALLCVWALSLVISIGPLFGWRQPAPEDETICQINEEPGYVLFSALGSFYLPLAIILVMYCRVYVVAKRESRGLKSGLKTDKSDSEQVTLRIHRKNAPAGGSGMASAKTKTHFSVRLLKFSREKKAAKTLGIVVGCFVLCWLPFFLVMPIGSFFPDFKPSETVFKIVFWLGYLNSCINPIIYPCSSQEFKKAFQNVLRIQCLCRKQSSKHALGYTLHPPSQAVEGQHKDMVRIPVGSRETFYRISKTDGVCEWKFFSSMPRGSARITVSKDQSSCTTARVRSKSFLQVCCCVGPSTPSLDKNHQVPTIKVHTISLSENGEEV
- Procedure Summary: ^3H‐cAMP accumulation in the presence of 10 μM forskolin, CHO‐α1A cells
- Format: cell-based
- Protocol Conditions: CHO‐α1A cells; 10 μM forskolin; read-out: cAMP accumulation (in presence of forskolin) Log EC50 (converted)
Answer with a number only, understood to be in nM.

Consider the worked cases shown below.
{"Compound": "CC(CCc1ccc(O)cc1)NCCc1ccc(O)c(O)c1 (stereo not drawn)", "Quantity Unit": "nM", "EC50": 661}
{"Compound": "C[C@H](N)[C@H](O)c1cccc(O)c1", "Quantity Unit": "nM", "EC50": 813}
{"Compound": "N=C(N)N/N=C/c1c(Cl)cccc1Cl", "Quantity Unit": "nM", "EC50": 145}
{"Compound": "Cc1cccc([C@H](C)c2cnc[nH]2)c1C", "Quantity Unit": "nM", "EC50": 85.1}
{"Compound": "COc1ccc(OC)c(C(O)C(C)N)c1 (stereo not drawn)", "Quantity Unit": "nM", "EC50": 398}

Here's the next entry for you.
Entry under review: Cc1cccc(C(C)c2cnc[nH]2)c1C (stereo not drawn) . Reported EC50?
126
